Where these numbers come from: ChEMBL document CHEMBL1140238

- TEST SYSTEM: Mitogen-activated protein kinase 3 (Homo sapiens) (UniProt P27361)
- Sequence (P27361 whole entry): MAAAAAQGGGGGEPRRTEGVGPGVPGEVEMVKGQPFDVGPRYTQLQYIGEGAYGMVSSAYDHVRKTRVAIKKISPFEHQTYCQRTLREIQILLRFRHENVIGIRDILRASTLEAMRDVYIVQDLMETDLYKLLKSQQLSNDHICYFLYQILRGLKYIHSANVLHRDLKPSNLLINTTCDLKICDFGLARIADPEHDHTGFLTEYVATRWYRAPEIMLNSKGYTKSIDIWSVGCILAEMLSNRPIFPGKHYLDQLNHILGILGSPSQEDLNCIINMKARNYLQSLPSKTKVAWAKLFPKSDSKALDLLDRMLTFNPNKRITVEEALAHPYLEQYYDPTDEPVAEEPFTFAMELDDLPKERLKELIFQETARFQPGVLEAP
- TEST SUMMARY: In vitro percent inhibition of Mitogen-activated protein kinase 3 at 10 uM concentration of compound dissolved in 100% DMSO using 5''-[gamma-33P]-triphosphate

COMPOUND: O=C(O)c1ccc(-c2nc3cc4ccccc4cc3nc2-c2ccc(C(=O)O)s2)s1
UNIT ANNOTATION: %
inhibition: 49
--
COMPOUND: COC(=O)CCCc1ccc(-c2nc3cc4ccccc4cc3nc2-c2ccc(CCCC(=O)OC)s2)s1
UNIT ANNOTATION: %
inhibition: 8
--
COMPOUND: O=C(O)Cc1csc(-c2nc3cc4ccccc4cc3nc2-c2cc(CC(=O)O)cs2)c1
UNIT ANNOTATION: %
inhibition: 54
--
COMPOUND: c1csc(-c2nc3cc4c(cc3nc2-c2cccs2)OCCO4)c1
UNIT ANNOTATION: %
inhibition: 31
--
COMPOUND: O=C(O)CCc1ccc(-c2nc3cc4ccccc4cc3nc2-c2ccc(CCC(=O)O)s2)s1
UNIT ANNOTATION: %
inhibition: 11
--
COMPOUND: c1csc(-c2nc3cc4ccccc4cc3nc2-c2cccs2)c1
UNIT ANNOTATION: %
inhibition: 11
--
COMPOUND: O=C(O)C1COc2cc3nc(-c4cccs4)c(-c4cccs4)nc3cc2O1 (configuration not stated)
UNIT ANNOTATION: %
inhibition: 39
--
COMPOUND: COc1cc2nc(-c3cccs3)c(-c3cccs3)nc2cc1OC
UNIT ANNOTATION: %
inhibition: 10
--
COMPOUND: c1csc(-c2nc3cc4c(cc3nc2-c2cccs2)OCO4)c1
UNIT ANNOTATION: %
inhibition: 14
--
COMPOUND: COC(=O)CCc1ccc(-c2nc3cc4ccccc4cc3nc2-c2ccc(CCC(=O)OC)s2)s1
UNIT ANNOTATION: %
inhibition: 13
--
COMPOUND: COc1cc2nc3nc(-c4cccs4)c(-c4cccs4)nc3nc2cc1OC
UNIT ANNOTATION: %
inhibition: 20
--
COMPOUND: O=C(O)CCCc1ccc(-c2nc3cc4ccccc4cc3nc2-c2ccc(CCCC(=O)O)s2)s1
UNIT ANNOTATION: %
inhibition: 6
